Would you mind telling me the reported pKi of each entry?
Target: Voltage-dependent L-type calcium channel subunit alpha-1C (Rattus norvegicus)
Sequence (P22002 whole entry): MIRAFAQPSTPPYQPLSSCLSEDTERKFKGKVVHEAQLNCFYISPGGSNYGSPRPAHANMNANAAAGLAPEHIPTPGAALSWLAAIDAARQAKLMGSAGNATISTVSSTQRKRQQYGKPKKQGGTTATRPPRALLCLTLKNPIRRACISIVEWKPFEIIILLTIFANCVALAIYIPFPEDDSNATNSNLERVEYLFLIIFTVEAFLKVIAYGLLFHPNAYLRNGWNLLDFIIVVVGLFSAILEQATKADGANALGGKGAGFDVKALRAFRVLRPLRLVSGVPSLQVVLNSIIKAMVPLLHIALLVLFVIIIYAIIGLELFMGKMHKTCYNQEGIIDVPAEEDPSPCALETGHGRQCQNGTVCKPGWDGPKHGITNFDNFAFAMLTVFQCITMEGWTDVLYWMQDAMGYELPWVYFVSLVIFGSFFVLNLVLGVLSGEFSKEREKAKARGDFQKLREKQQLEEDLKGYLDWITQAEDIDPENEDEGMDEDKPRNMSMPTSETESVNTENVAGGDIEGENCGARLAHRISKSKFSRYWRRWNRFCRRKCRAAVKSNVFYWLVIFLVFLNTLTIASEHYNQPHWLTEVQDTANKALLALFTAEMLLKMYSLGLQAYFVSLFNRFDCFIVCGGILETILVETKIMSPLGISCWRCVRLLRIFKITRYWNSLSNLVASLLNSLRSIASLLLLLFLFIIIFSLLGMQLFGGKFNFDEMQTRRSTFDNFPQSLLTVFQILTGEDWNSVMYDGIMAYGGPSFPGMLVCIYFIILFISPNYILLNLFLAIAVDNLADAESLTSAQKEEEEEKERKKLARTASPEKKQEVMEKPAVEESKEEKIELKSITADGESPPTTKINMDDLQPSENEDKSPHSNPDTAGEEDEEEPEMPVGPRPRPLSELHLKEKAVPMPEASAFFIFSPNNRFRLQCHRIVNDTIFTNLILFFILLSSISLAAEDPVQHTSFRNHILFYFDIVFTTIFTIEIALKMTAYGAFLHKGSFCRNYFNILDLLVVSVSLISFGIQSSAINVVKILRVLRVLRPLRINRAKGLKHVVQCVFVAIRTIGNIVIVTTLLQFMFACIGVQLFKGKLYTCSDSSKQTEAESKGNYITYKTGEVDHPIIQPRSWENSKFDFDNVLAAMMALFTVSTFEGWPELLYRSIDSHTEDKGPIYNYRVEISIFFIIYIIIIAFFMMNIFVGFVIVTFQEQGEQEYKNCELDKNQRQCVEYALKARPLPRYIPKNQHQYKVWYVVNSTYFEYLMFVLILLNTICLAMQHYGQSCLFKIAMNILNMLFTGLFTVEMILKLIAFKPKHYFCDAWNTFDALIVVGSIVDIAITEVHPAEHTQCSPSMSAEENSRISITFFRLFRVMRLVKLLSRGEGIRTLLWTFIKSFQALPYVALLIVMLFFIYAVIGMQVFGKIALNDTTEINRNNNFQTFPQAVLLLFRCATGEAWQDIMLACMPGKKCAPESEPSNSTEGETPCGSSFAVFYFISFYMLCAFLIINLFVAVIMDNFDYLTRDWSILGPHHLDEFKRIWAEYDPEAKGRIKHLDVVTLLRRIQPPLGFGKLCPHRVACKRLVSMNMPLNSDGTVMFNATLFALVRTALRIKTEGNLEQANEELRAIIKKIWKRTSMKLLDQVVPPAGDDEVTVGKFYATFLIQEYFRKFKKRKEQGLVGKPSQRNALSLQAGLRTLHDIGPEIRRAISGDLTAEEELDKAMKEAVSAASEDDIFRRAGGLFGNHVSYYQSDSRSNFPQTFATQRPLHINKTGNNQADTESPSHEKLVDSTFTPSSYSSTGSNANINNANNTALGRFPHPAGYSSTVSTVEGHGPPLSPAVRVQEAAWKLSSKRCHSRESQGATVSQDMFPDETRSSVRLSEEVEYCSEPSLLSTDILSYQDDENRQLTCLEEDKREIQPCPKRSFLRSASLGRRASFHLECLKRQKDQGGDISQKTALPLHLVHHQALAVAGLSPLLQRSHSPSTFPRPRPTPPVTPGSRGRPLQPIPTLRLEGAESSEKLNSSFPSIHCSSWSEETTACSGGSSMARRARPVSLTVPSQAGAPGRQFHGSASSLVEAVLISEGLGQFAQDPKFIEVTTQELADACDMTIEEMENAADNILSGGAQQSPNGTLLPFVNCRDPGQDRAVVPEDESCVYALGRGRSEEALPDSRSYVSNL
Experiment: Inhibition of [3H](+)-PN200-110 binding to calcium channels of rat heart membranes.
Type: cell membranes, Membrane
Just the number, please; pKi means minus log10 of the concentration in mol/L.

COC(=O)C1=C(C)NC(C)=C(C(=O)OCCCCCCCC[N+](C)(C)C)C1c1cccc([N+](=O)[O-])c1.[I-] (racemic) has a reported pKi of 7.00

COC(=O)C1=C(C)NC(C)=C(C(=O)OCC[N+](C)(C)C)[C@@H]1c1cccc([N+](=O)[O-])c1.[I-] has a reported pKi of 4.86

COC(=O)C1=C(C)NC(C)=C(C(=O)OCCCCCCCC[N+](C)(C)C)[C@H]1c1cccc([N+](=O)[O-])c1.[I-] has a reported pKi of 8.10

COC(=O)C1=C(C)NC(C)=C(C(=O)OCCCCCCCC[N+](C)(C)C)[C@@H]1c1cccc([N+](=O)[O-])c1.[I-] has a reported pKi of 6.30

COC(=O)C1=C(C)NC(C)=C(C(=O)OCC[N+](C)(C)C)C1c1cccc([N+](=O)[O-])c1.[I-] (racemic) has a reported pKi of 5.82

COC(=O)C1=C(C)NC(C)=C(C(=O)OCC[N+](C)(C)C)[C@H]1c1cccc([N+](=O)[O-])c1.[I-] has a reported pKi of 6.00

====

Target: Voltage-dependent L-type calcium channel subunit alpha-1C (Rattus norvegicus)
Assay: Pseudo Hill coefficient for inhibition of [3H](+)-PN200-110 binding to calcium channels of rat heart membranes
Type: cell membranes, Membrane
Readout Kind: nH
Reply with the value as a number alone.

COC(=O)C1=C(C)NC(C)=C(C(=O)OCCCCCCCC[N+](C)(C)C)C1c1cccc([N+](=O)[O-])c1.[I-] (racemic) has a reported nH of 1.1

COC(=O)C1=C(C)NC(C)=C(C(=O)OCC[N+](C)(C)C)[C@@H]1c1cccc([N+](=O)[O-])c1.[I-] has a reported nH of 0.9

COC(=O)C1=C(C)NC(C)=C(C(=O)OCCCCCCCC[N+](C)(C)C)[C@H]1c1cccc([N+](=O)[O-])c1.[I-] has a reported nH of 1.2

COC(=O)C1=C(C)NC(C)=C(C(=O)OCC[N+](C)(C)C)C1c1cccc([N+](=O)[O-])c1.[I-] (racemic) has a reported nH of 1

COC(=O)C1=C(C)NC(C)=C(C(=O)OCC[N+](C)(C)C)[C@H]1c1cccc([N+](=O)[O-])c1.[I-] has a reported nH of 1

COC(=O)C1=C(C)NC(C)=C(C(=O)OCCCCCCCC[N+](C)(C)C)[C@@H]1c1cccc([N+](=O)[O-])c1.[I-] has a reported nH of 1.1

====

Target: Voltage-gated L-type calcium channel (Rattus norvegicus, UniProt P22002+Q02485+P27732)
Experiment: Pseudo Hill coefficient for inhibition of [3H](+)-PN200-110 binding to GH4C1 cells under depolarized conditions (50 mM K+).
Type: cell-based
Conditions: gh4-c1
Readout Kind: nH
Reply with the value as a number alone.

Let me check: COC(=O)C1=C(C)NC(C)=C(C(=O)OCC[N+](C)(C)C)[C@H]1c1cccc([N+](=O)[O-])c1.[I-] , system Voltage-gated L-type calcium channel (Rattus norvegicus, UniProt P22002+Q02485+P27732), measured nH is 0.9

Let me check: COC(=O)C1=C(C)NC(C)=C(C(=O)OCCCCCCCC[N+](C)(C)C)C1c1cccc([N+](=O)[O-])c1.[I-] (racemic) , system Voltage-gated L-type calcium channel (Rattus norvegicus, UniProt P22002+Q02485+P27732), measured nH is 1.3

Let me check: COC(=O)C1=C(C)NC(C)=C(C(=O)OCC[N+](C)(C)C)[C@@H]1c1cccc([N+](=O)[O-])c1.[I-] , system Voltage-gated L-type calcium channel (Rattus norvegicus, UniProt P22002+Q02485+P27732), measured nH is 0.5

Let me check: COC(=O)C1=C(C)NC(C)=C(C(=O)OCCCCCCCC[N+](C)(C)C)[C@@H]1c1cccc([N+](=O)[O-])c1.[I-] , system Voltage-gated L-type calcium channel (Rattus norvegicus, UniProt P22002+Q02485+P27732), measured nH is 1

Let me check: COC(=O)C1=C(C)NC(C)=C(C(=O)OCC[N+](C)(C)C)C1c1cccc([N+](=O)[O-])c1.[I-] (racemic) , system Voltage-gated L-type calcium channel (Rattus norvegicus, UniProt P22002+Q02485+P27732), measured nH is 1.7

Let me check: COC(=O)C1=C(C)NC(C)=C(C(=O)OCCCCCCCC[N+](C)(C)C)[C@H]1c1cccc([N+](=O)[O-])c1.[I-] , system Voltage-gated L-type calcium channel (Rattus norvegicus, UniProt P22002+Q02485+P27732), measured nH is 1.1

====

Molecular target: Voltage-gated L-type calcium channel (Rattus norvegicus, UniProt P22002+Q02485+P27732)
Experiment: Pseudo Hill coefficient for inhibition of [3H](+)-PN200-110 binding to calcium channels of rat cerebral cortex membrane
Type: tissue-based
Readout Kind: nH
Reply with the value as a number alone.

Let me check: COC(=O)C1=C(C)NC(C)=C(C(=O)OCC[N+](C)(C)C)C1c1cccc([N+](=O)[O-])c1.[I-] (racemic) , system Voltage-gated L-type calcium channel (Rattus norvegicus, UniProt P22002+Q02485+P27732), measured nH is 1

Let me check: COC(=O)C1=C(C)NC(C)=C(C(=O)OCC[N+](C)(C)C)[C@@H]1c1cccc([N+](=O)[O-])c1.[I-] , system Voltage-gated L-type calcium channel (Rattus norvegicus, UniProt P22002+Q02485+P27732), measured nH is 0.8

Let me check: COC(=O)C1=C(C)NC(C)=C(C(=O)OCCCCCCCC[N+](C)(C)C)[C@@H]1c1cccc([N+](=O)[O-])c1.[I-] , system Voltage-gated L-type calcium channel (Rattus norvegicus, UniProt P22002+Q02485+P27732), measured nH is 1

Let me check: COC(=O)C1=C(C)NC(C)=C(C(=O)OCCCCCCCC[N+](C)(C)C)[C@H]1c1cccc([N+](=O)[O-])c1.[I-] , system Voltage-gated L-type calcium channel (Rattus norvegicus, UniProt P22002+Q02485+P27732), measured nH is 1.6

Let me check: COC(=O)C1=C(C)NC(C)=C(C(=O)OCCCCCCCC[N+](C)(C)C)C1c1cccc([N+](=O)[O-])c1.[I-] (racemic) , system Voltage-gated L-type calcium channel (Rattus norvegicus, UniProt P22002+Q02485+P27732), measured nH is 1.4

Let me check: COC(=O)C1=C(C)NC(C)=C(C(=O)OCC[N+](C)(C)C)[C@H]1c1cccc([N+](=O)[O-])c1.[I-] , system Voltage-gated L-type calcium channel (Rattus norvegicus, UniProt P22002+Q02485+P27732), measured nH is 0.9

====

Biological target: Voltage-gated L-type calcium channel (Rattus norvegicus, UniProt P22002+Q02485+P27732)
Test: Inhibition of [3H](+)-PN200-110 binding to calcium channels of GH4C1 cells under depolarized conditions (50 mM K+).
Format: cell-based
Conditions: gh4-c1
Criterion: Ki strictly less than 700 nM. Met: label 1. Not met: label 0.

Regarding COC(=O)C1=C(C)NC(C)=C(C(=O)OCCCCCCCC[N+](C)(C)C)[C@H]1c1cccc([N+](=O)[O-])c1.[I-] , kindly confirm whether its Ki is beneath 700 nM.
label 1

Regarding COC(=O)C1=C(C)NC(C)=C(C(=O)OCC[N+](C)(C)C)[C@@H]1c1cccc([N+](=O)[O-])c1.[I-] , kindly confirm whether its Ki is beneath 700 nM.
label 0

Regarding COC(=O)C1=C(C)NC(C)=C(C(=O)OCC[N+](C)(C)C)[C@H]1c1cccc([N+](=O)[O-])c1.[I-] , kindly confirm whether its Ki is beneath 700 nM.
label 1

Regarding COC(=O)C1=C(C)NC(C)=C(C(=O)OCC[N+](C)(C)C)C1c1cccc([N+](=O)[O-])c1.[I-] (racemic) , kindly confirm whether its Ki is beneath 700 nM.
label 1

Regarding COC(=O)C1=C(C)NC(C)=C(C(=O)OCCCCCCCC[N+](C)(C)C)C1c1cccc([N+](=O)[O-])c1.[I-] (racemic) , kindly confirm whether its Ki is beneath 700 nM.
label 1

Regarding COC(=O)C1=C(C)NC(C)=C(C(=O)OCCCCCCCC[N+](C)(C)C)[C@@H]1c1cccc([N+](=O)[O-])c1.[I-] , kindly confirm whether its Ki is beneath 700 nM.
label 0
